These entries and their values trace back to ChEMBL document CHEMBL1201861.

System: LB2241-RCC;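 also: cell viability assay measuring how strongly the cultured human renal carcinoma line is prevented from growing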
Experiment: cells
Format: functional, cell-based, Homo sapiens
Settings: Homo sapiens, LB2241-RCC
Description: SANGER: Inhibition of human LB2241-RCC cell growth in a cell viability assay.
The following compounds are listed with their measured log10 IC50 values.
Scale: decimal log of IC50, IC50 in nM.

compound | attribute_measured | reported_measurement
O=C(NOCC1CC1)c1ccc(F)c(F)c1Nc1ccc(I)cc1Cl | log10 IC50 | 3.46
CS(=O)(=O)CCNCc1ccc(-c2ccc3ncnc(Nc4ccc(OCc5cccc(F)c5)c(Cl)c4)c3c2)o1 | log10 IC50 | 3.06
COc1cc(F)c(F)c(Nc2ccc(I)cc2F)c1NS(=O)(=O)C1(CC(O)CO)CC1 (stereo not given) | log10 IC50 | 3.52

Here is the next item to consider.
If you can, please state the reported log10 IC50 value of `CC(=O)O[C@@]12CO[C@@H]1C[C@H](O)[C@@]1(C)C(=O)[C@H](O)C3=C(C)[C@@H](OC(=O)[C@H](O)[C@@H](NC(=O)OC(C)(C)C)c4ccccc4)C[C@@](O)([C@@H](OC(=O)c4ccccc4)[C@H]21)C3(C)C` .
0.73

###

Listed compounds paired with reported IC50
System: BC1 cell line
Assay: SANGER: Inhibition of human BC-1 cell growth in a cell viability assay.
Format: functional, cell-based

Examples with answers:
compound | reported_measurement
Cn1cncc1[C@@](N)(c1ccc(Cl)cc1)c1ccc2c(c1)c(-c1cccc(Cl)c1)cc(=O)n2C | 130 nM
CS(=O)(=O)CCNCc1ccc(-c2ccc3ncnc(Nc4ccc(OCc5cccc(F)c5)c(Cl)c4)c3c2)o1 | > 2000 nM
O=C(/C=C/c1ccccc1)NC(NC(=S)Nc1cccc2cccnc12)C(Cl)(Cl)Cl (stereo unspecified) | 15200 nM
CO[C@H]1C[C@@H]2CC[C@@H](C)[C@@](O)(O2)C(=O)C(=O)N2CCCC[C@H]2C(=O)O[C@H]([C@H](C)C[C@@H]2CC[C@@H](O)[C@H](OC)C2)CC(=O)[C@H](C)/C=C(\C)[C@@H](O)[C@@H](OC)C(=O)[C@H](C)C[C@H](C)/C=C/C=C/C=C/1C | 31.3 nM
C=C1C(=O)O[C@@H]2C3O[C@]3(C)CC/C=C(\C)CC[C@@H]12 (stereo partly specified) | > 5000 nM

Next item in the queue.
Query: IC50; subject: `CN(c1ncccc1CNc1nc(Nc2ccc3c(c2)CC(=O)N3)ncc1C(F)(F)F)S(C)(=O)=O`
1620 nM

###

Recorded IC50 by entry
System: HCC2157
Assay: cells
Format: functional, cell-based
Settings: Homo sapiens
Description: SANGER: Inhibition of human HCC2157 cell growth in a cell viability assay.

Example compounds with recorded IC50:
line_notation | IC50
CCc1nc(N)nc(N)c1-c1ccc(Cl)cc1 | > 20000 nM
Cc1cc(Nc2cc(N3CCN(C)CC3)nc(Sc3ccc(NC(=O)C4CC4)cc3)n2)n[nH]1 | > 2000 nM
C[C@]1(O)C[C@@H](c2nc(-c3ccc4ccc(-c5ccccc5)nc4c3)c3c(N)nccn32)C1 | > 2560 nM

Lab request: please report IC50 under test system HCC2157 for `CNC(=O)c1cc(Oc2ccc(NC(=O)Nc3ccc(Cl)c(C(F)(F)F)c3)cc2)ccn1`;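 also: growth inhibition of the cancer cell line, read out as cell viability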
> 4000 nM

Kindly state the measured IC50 obtained for `CCC(=O)N1CCN(c2ccc(-n3c(=O)ccc4cnc5ccc(-c6cnc7ccccc7c6)cc5c43)cc2C(F)(F)F)CC1` with HCC2157.
340 nM

Which IC50 is reported with HCC2157 for this entry: `Cn1cncc1[C@@](N)(c1ccc(Cl)cc1)c1ccc2c(c1)c(-c1cccc(Cl)c1)cc(=O)n2C` ?
323 nM

Reported IC50 for HCC2157, given `CN(c1ncccc1CNc1nc(Nc2ccc3c(c2)CC(=O)N3)ncc1C(F)(F)F)S(C)(=O)=O` ?
> 2560 nM
